target: corticotropin releasing factor 1 receptor; experiment: cell-based or functional assay; further: reference of the scale not given here
Measured CRF1R Emax values are reported for all entries that follow.
Record the value in %, omitting the unit from your answer.

Binder	Quantity unit	Reading
ZGPPISIDLPTTLLRKMIEIEKQEKEKQQAANNRLLLDTI (C-terminal amide) [SEQ ID NO 42]	%	10

Please look up its CRF1R Emax: ZGPPISIDLPTNLLRKMIEIEKQEKEKQQAANNRLLLDTI (C-terminal amide) [SEQ ID NO 59]
10

Next: ZGPPISIDLSIGLLRKMIEIEKQEKEKQQAANNRLLLDTI (C-terminal amide) [SEQ ID NO 25]
92.3

Next: ZGPPISIDLPIQLLRKMIEIEKQEKEKQQAANNRLLLDTI (C-terminal amide) [SEQ ID NO 78]
6

Next: ZGPPISIDLPFQLLRKMIEIEKQEKEKQQATTNARLLATV (C-terminal amide) [SEQ ID NO 21]
88

Next: ZGPPISIDLPTKLLRKMIEIEKQEKEKQQAANNRLLLDTI (C-terminal amide) [SEQ ID NO 45]
7
